targetOfAssay: human glucagon receptor (human, UniProt P47871 26-477)
protocolText: cell-based or functional assay
Documented cAMP EC50 across a set of binders
Field: numeric (nM). Do not append units.

IP087 (Fc fusion) YSEGTFTSDYSKLLEEEAVRLFIEWLLAGPAAAGGSGSTASSGSGSATGGGGAATHTCPPCPAPEF	9.6
IP085 (Fc fusion) YSEGTFTSDYSKLLEEEAVRLFIEWLLAGAPPGGSGSTASSGSGSATGGGGAATHTCPPCPAPEF	7.1

Now take the following binder into account.
Query: Sample IP262 (Fc fusion) YSEGTFTSDYSKLLEEEAVRLFIEWLLKGPGGGGGSGGGGSGGGGSGGGGSATHTCPPCPAPEF — what was its cAMP EC50?
Reply: 63

Values were extracted from patent US20160185837A1.
